Origin of values: ChEMBL document CHEMBL1148785

System: Plasmodium falciparum
Test: Inhibition of Plasmodium falciparum protein farnesyltransferase at 50 nM by scintillation proximity assay
Provide the reported inhibition of each item.
One number for each entry, in %.

| COMPOUND | MEASURE_UNIT | inhibition |
| --- | --- | --- |
| Cn1cncc1CN1CC(N(CCc2ccccc2F)S(=O)(=O)c2ccccn2)Cc2cc(C#N)ccc21 (centres undefined) | % | 98 |
| CCOC(=O)N1CCC(CN(C2Cc3cc(C#N)ccc3N(Cc3cncn3C)C2)S(=O)(=O)c2ccccn2)CC1 (centres undefined) | % | 100 |
| COC(=O)N1CCC(CN(C2Cc3cc(C#N)ccc3N(Cc3cncn3C)C2)S(=O)(=O)c2cccc3ccccc23)CC1 (centres undefined) | % | 88 |

For each of the compounds below, note its inhibition.
1. CCS(=O)(=O)c1ccc(CN(C2Cc3cc(C#N)ccc3N(Cc3cncn3C)C2)S(=O)(=O)c2ncn(C)c2C)cc1 (centres undefined)
2. COC(=O)NCCCN(C1Cc2cc(C#N)ccc2N(Cc2cncn2C)C1)S(=O)(=O)c1ccccn1 (centres undefined)
3. Cn1cnc(CN2CC(N(Cc3ccc(S(C)(=O)=O)cc3)S(=O)(=O)c3cn(C)cn3)Cc3cc(-c4ccccc4)ccc32)c1 (centres undefined)
4. COC(=O)N1CCC(CN(C2Cc3cc(C#N)ccc3N(Cc3cncn3C)C2)S(=O)(=O)c2cccc3nsnc23)CC1 (centres undefined)
5. CN(C1Cc2cc(-c3ccccc3)ccc2N(Cc2cn(C)cn2)C1)S(=O)(=O)c1cn(C)cn1 (centres undefined)
6. Cn1cncc1CN1CC(N(CCN)S(=O)(=O)c2ccccn2)Cc2cc(C#N)ccc21 (centres undefined)
7. Cn1cnc(S(=O)(=O)N(CCN2C(=O)c3ccccc3C2=O)C2Cc3cc(C#N)ccc3N(Cc3cncn3C)C2)c1 (centres undefined)
8. Cn1cnc(CN2CC(N(CCNC(=O)OC(C)(C)C)S(=O)(=O)c3cn(C)cn3)Cc3cc(-c4ccccc4)ccc32)c1 (centres undefined)

Data returned:
1. 97
2. 96
3. 98
4. 98
5. 88
6. 65
7. 98
8. 98

For each of the compounds below, note its inhibition.
1. Cn1cncc1CN1CC(N(CCn2ccc3ccccc32)S(=O)(=O)c2ccccn2)Cc2cc(C#N)ccc21 (centres undefined)
2. Cn1cncc1CN1CC(N(Cc2ccc(F)cc2)S(=O)(=O)c2ccccn2)Cc2cc(C#N)ccc21 (centres undefined)
3. Cc1ccsc1S(=O)(=O)N(Cc1ccc(S(C)(=O)=O)cc1)C1Cc2cc(C#N)ccc2N(Cc2cncn2C)C1 (centres undefined)
4. Cn1cncc1CN1CC(N(CC2CCN(C(=O)c3ccco3)CC2)S(=O)(=O)c2ccccn2)Cc2cc(C#N)ccc21 (centres undefined)
5. Cn1cnc(S(=O)(=O)N(CCCCON2C(=O)c3ccccc3C2=O)C2Cc3cc(C#N)ccc3N(Cc3cncn3C)C2)c1 (centres undefined)
6. Cn1cnc(S(=O)(=O)N(Cc2ccc(-n3cccc3)cc2)C2Cc3cc(C#N)ccc3N(Cc3cncn3C)C2)c1 (centres undefined)
7. COC(=O)N1CCC(CN(C2Cc3cc(C#N)ccc3N(Cc3cncn3C)C2)S(=O)(=O)c2ccc(OC)cc2)CC1 (centres undefined)
8. Cc1cc(=O)n(CCCCN(C2Cc3cc(C#N)ccc3N(Cc3cncn3C)C2)S(=O)(=O)c2ccccn2)c(=O)n1C (centres undefined)

Data returned:
98
91
97
92
99
99
98
90

----------
Provide the reported inhibition of each item.
System: Plasmodium falciparum
Test: Inhibition of Plasmodium falciparum protein farnesyltransferase at 50 nM by scintillation proximity assay
Give bare numbers, in %.

Here's what some known entries look like.
| COMPOUND | OBSERVED |
| --- | --- |
| Cn1cnc(S(=O)(=O)N(Cc2ccccc2C(F)(F)F)C2Cc3cc(C#N)ccc3N(Cc3cncn3C)C2)c1 (configuration not stated) | 99 |
| Cn1cncc1CN1CC(N(Cc2ccc(C(F)(F)F)o2)S(=O)(=O)c2ccccn2)Cc2cc(C#N)ccc21 (configuration not stated) | 84 |
| Cn1cncc1CN1CC(N(CC2CCN(C(=O)CC(C)(C)C)CC2)S(=O)(=O)c2ccccn2)Cc2cc(C#N)ccc21 (configuration not stated) | 96 |
| CC(=O)N1CCC(CN(C2Cc3cc(C#N)ccc3N(Cc3cncn3C)C2)S(=O)(=O)c2ccccn2)CC1 (configuration not stated) | 94 |
| Cn1cncc1CN1CC(N(CC2CCN(C(=O)C3CCCC3)CC2)S(=O)(=O)c2ccccn2)Cc2cc(C#N)ccc21 (configuration not stated) | 100 |
| Cn1cncc1CN1CC(N(Cc2ccccn2)S(=O)(=O)c2ccccn2)Cc2cc(C#N)ccc21 (configuration not stated) | 100 |

As a next step, examine the compound that follows.
Data request: Give measured inhibition for Cn1cncc1CN1CC(N(Cc2ccc(S(C)(=O)=O)cc2)S(=O)(=O)c2ccc3c(c2)OCCCO3)Cc2cc(C#N)ccc21 (configuration not stated) (Plasmodium falciparum).
Data returned: 97

----------
Test system: Plasmodium falciparum
Assay: Inhibition of Plasmodium falciparum protein farnesyltransferase at 5 nM by scintillation proximity assay
Provide the reported inhibition of each item.
Answers are plain numbers, in %.

Here's what some known entries look like.
| COMPOUND | ASSAY_TARGET | MEASURE_UNIT | inhibition |
| --- | --- | --- | --- |
| COC(=O)N1CCC(CN(C2Cc3cc(C#N)ccc3N(Cc3cncn3C)C2)S(=O)(=O)CS(C)(=O)=O)CC1 (configuration not stated) | Plasmodium falciparum | % | 0 |
| Cn1cnc(CN2CC(N(CC(=O)NC(C)(C)C)S(=O)(=O)c3ccccc3)Cc3cc(-c4ccccc4)ccc32)c1 (configuration not stated) | Plasmodium falciparum | % | 0 |
| Cn1cncc1CN1CC(N(CC2CCN(C(=O)C3CCCC3)CC2)S(=O)(=O)c2ccccn2)Cc2cc(C#N)ccc21 (configuration not stated) | Plasmodium falciparum | % | 39 |
| CC(=O)N(Cc1ccccc1F)C1Cc2cc(C#N)ccc2N(Cc2cncn2C)C1 (configuration not stated) | Plasmodium falciparum | % | 1 |
| Cn1cncc1CN1CC(N(CCCNC(=O)OC(C)(C)C)S(=O)(=O)c2ccccn2)Cc2cc(C#N)ccc21 (configuration not stated) | Plasmodium falciparum | % | 70 |
| Cn1cnc(S(=O)(=O)NC2Cc3cc(-c4ccccc4)ccc3N(Cc3cncn3C)C2)c1 (configuration not stated) | Plasmodium falciparum | % | 31 |

As a next step, examine the compound that follows.
Data request: Recall and state the measured inhibition for CC(=O)Nc1ccc(S(=O)(=O)N(Cc2ccccc2F)C2Cc3cc(C#N)ccc3N(Cc3cncn3C)C2)cc1 (configuration not stated) .
Data returned: 4

----------
Test system: Plasmodium falciparum
Test: Inhibition of Plasmodium falciparum protein farnesyltransferase at 0.5 nM by scintillation proximity assay
Please note: yes (1) applies when inhibition is 20% or greater, and no (0) applies otherwise.

Data request: Textbook exercise: given the entry COC(=O)N1CCC(CN(C2Cc3cc(C#N)ccc3N(Cc3cncn3C)C2)S(=O)(=O)c2ccccc2Cl)CC1 (stereo not drawn) , state whether its inhibition is greater than or equal to 20%.
Data returned: yes (1)

Data request: Textbook exercise: given the entry Cn1cnc(CN2CC(N(CC3CCN(C(=O)OC(C)(C)C)CC3)S(=O)(=O)c3cn(C)cn3)Cc3cc(-c4ccccc4)ccc32)c1 (stereo not drawn) , state whether its inhibition is greater than or equal to 20%.
Data returned: no (0)

----------
Test system: Plasmodium falciparum
Assay: Antimalarial activity against Plasmodium falciparum K1
Assay type: functional
Conditions: Plasmodium falciparum, K1; read-out: ED50 (the source's name)
Provide the reported EC50 of each item.

Here's what some known entries look like.
| COMPOUND | OBSERVED |
| --- | --- |
| Cn1cnc(S(=O)(=O)N(Cc2ccc3c(c2)OCCS3(=O)=O)C2Cc3cc(C#N)ccc3N(Cc3cncn3C)C2)c1 (stereo not drawn) | < 0.02 µM |
| Cn1cncc1CN1CC(N(CC(=O)OC(C)(C)C)C(=O)c2ccccc2)Cc2cc(C#N)ccc21 (stereo not drawn) | > 5 µM |

Data request: Give measured EC50 for Cn1cnc(S(=O)(=O)N(CC(=O)NC(C)(C)C)C2Cc3cc(C(=O)NC(C)(C)C)ccc3N(Cc3cncn3C)C2)c1 (stereo not drawn) (Plasmodium falciparum).
Data returned: > 5 µM

----------
System: Plasmodium falciparum
Assay: Inhibition of Plasmodium falciparum protein farnesyltransferase at 50 nM by scintillation proximity assay
Provide the reported inhibition of each item.

For each of the compounds below, note its inhibition.
1. COCCCN(C1Cc2cc(C#N)ccc2N(Cc2cncn2C)C1)S(=O)(=O)c1ccccn1 (centres undefined)
2. Cn1cncc1CN1CC(N(CC(=O)NC(C)(C)C)S(=O)(=O)CCN2C(=O)c3ccccc3C2=O)Cc2cc(C#N)ccc21 (centres undefined)
3. CC(C)NC(=O)c1ccc2c(c1)CC(N(CC(=O)NC(C)(C)C)S(=O)(=O)c1cn(C)cn1)CN2Cc1cncn1C (centres undefined)
4. CCC(C)NC(=O)c1ccc2c(c1)CC(N(CC(=O)NC(C)(C)C)S(=O)(=O)c1cn(C)cn1)CN2Cc1cncn1C (centres undefined)
5. Cn1cncc1CN1CC(N(Cc2ccc3ccccc3c2Br)S(=O)(=O)c2ccccn2)Cc2cc(C#N)ccc21 (centres undefined)
6. COC(=O)CN(C1Cc2cc(-c3ccccc3)ccc2N(Cc2cn(C)cn2)C1)S(=O)(=O)c1cn(C)cn1 (centres undefined)
7. Cn1cnc(S(=O)(=O)N(Cc2cccc3nsnc23)C2Cc3cc(C#N)ccc3N(Cc3cncn3C)C2)c1 (centres undefined)

Data returned:
1. 93%
2. 60%
3. 46%
4. 35%
5. 55%
6. 99%
7. 99%

For each of the compounds below, note its inhibition.
1. COC(=O)N1CCC(CN(C2Cc3cc(C#N)ccc3N(Cc3cncn3C)C2)S(=O)(=O)c2ccccc2)CC1 (centres undefined)
2. CN(C)CCN(C1Cc2cc(C#N)ccc2N(Cc2cncn2C)C1)S(=O)(=O)c1cn(C)cn1 (centres undefined)
3. Cn1cnc(CN2CC(N(Cc3ccccc3)S(=O)(=O)c3cn(C)cn3)Cc3cc(-c4ccccc4)ccc32)c1 (centres undefined)

Data returned:
98%
64%
99%
